Consider the following sequences and their measured self-splicing fitness (ln) readings.
- testMethodNotes: self-splicing fitness, log relative to wild type (ln ratio); higher = more splicing; Tetrahymena group I intron in knt gene, E. coli kanamycin selection, DiMSum; sequences stand for … in CUCUCU…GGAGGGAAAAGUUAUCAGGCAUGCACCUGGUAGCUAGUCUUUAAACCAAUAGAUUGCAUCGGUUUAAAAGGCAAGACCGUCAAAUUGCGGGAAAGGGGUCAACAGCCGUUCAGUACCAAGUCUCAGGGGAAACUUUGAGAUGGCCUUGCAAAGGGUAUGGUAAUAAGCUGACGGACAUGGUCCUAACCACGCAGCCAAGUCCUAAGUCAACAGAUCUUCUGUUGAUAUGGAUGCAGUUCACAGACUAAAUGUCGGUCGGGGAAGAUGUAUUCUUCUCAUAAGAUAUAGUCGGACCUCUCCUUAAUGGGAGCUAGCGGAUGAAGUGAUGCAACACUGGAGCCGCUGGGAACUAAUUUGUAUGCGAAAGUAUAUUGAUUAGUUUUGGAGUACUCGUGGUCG;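 further: selection with 25 µg/mL kanamycin versus none on LB agar overnight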
- protocolConditions: 37 °C
metric: self-splicing fitness (ln)

[[record]]
chain = "GAAUAGCAAUAUUACGUGUC"
measurednumber = -2.58

[[record]]
chain = "GCAAAGCAAUAUUACGAUCU"
measurednumber = -0.252

[[record]]
chain = "CAUCAGCAAUAUUACGAAAC"
measurednumber = -3.45

[[record]]
chain = "CUGCAGCAAUAUUACGCUCA"
measurednumber = -2.21

[[record]]
chain = "CGUUAGCAAUAUUACGGCCU"
measurednumber = -1.26

[[record]]
chain = "GCUUAGCAAUAUUACGUGAC"
measurednumber = -1.08

[[record]]
chain = "CCUGAGCAAUAUUACGUCAU"
measurednumber = -2.68

[[record]]
chain = "GGUUAGCAAUAUUACGUGUU"
measurednumber = -0.323

[[record]]
chain = "CCGGAGCAAUAUUACGCGUA"
measurednumber = -1.59

[[record]]
chain = "UAUAAGCAAUAUUACGCGGU"
measurednumber = -3.54

[[record]]
chain = "CCCCAGCAAUAUUACGAUUA"
measurednumber = -2.87

[[record]]
chain = "UCGUAGCAAUAUUACGCGAG"
measurednumber = -2.43

[[record]]
chain = "UUGCAGCAAUAUUACGACUG"
measurednumber = -1.72

[[record]]
chain = "GCCCAGCAAUAUUACGUACC"
measurednumber = 0.0161

